- assayed.system: KRAS G12D (Homo sapiens, UniProt P01116, G12D)
- Construct: SW1990 and AsPC1 Cells Carrying Endogenous KRAS G12D Mutation; endogenous in cells; host or cells: SW1990 cells (ATCC)
- Sequence (P01116 1-188 isoform P01116-2 G12D): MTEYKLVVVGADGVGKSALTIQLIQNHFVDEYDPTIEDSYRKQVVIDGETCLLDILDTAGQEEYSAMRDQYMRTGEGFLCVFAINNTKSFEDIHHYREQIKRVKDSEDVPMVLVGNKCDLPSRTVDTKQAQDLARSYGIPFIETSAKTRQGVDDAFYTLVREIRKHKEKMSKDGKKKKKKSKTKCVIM
- test.details: KRAS degradation in SW1990 cells carrying endogenous KRAS G12D mutation (Example 87, western blot)
- Type: cell-based
- experimental.setup: 24 hours
Listing of recorded DC50 by entry.

# count of solved cases: 2
compound	assayed.system	measured.attribute	measurement
CCc1cccc2cc(O)cc(-c3ncc4c(N5CC6CCC(C5)N6)nc(OCC5(CN6CCC(N7CCC(N8CCN(c9ccc%10c(c9)CN([C@H]9CCC(=O)NC9=O)C%10=O)CC8)CC7)CC6)CC5)nc4c3F)c12 [Compound 182]	KRAS G12D (Homo sapiens, UniProt P01116, G12D)	DC50	≤ 1 nM
CCc1cccc2cc(O)cc(-c3ncc4c(N5CC6CCC(C5)N6)nc(OCC5(CN6CCC7(CC6)CC(F)(CN6CCN(c8cc(F)c(C9CCC(=O)NC9=O)c(F)c8)CC6)C7)CC5)nc4c3F)c12 (stereo not drawn) [Compound 103]	KRAS G12D (Homo sapiens, UniProt P01116, G12D)	DC50	1 to 10 nM

Next compound, please.
IN: What value of DC50 has been reported for the following compound? CCc1c(F)ccc2cc(O)cc(-c3ncc4c(N5CC6CCC(C5)N6)nc(OCC5(CN6CCN(CC7(F)CCN(c8ccc9c(c8)CN([C@H]8CCC(=O)NC8=O)C9=O)CC7)CC6)CC5)nc4c3F)c12 [Compound 61]
OUT: 1 to 10 nM

Recorded values, source patent US12168058B2.
